// provenance: the C3SDB collision cross section collection

# Condition parameters: [M+H]+; instrument: TW; calibrated with polyalanine and drug standards
Entries and their collision cross section (N2)
Dear colleague, please return just the value in Å², with no unit written.

As a guide, the following entries are already answered.
CC(C)Oc1ccc2c(=O)c(-c3ccccc3)coc2c1 [IPRIFLAVONE]: 164.3
C=CCc1ccc2c(c1)OCO2 [SAFROLE]: 138.6
O=C(O)CCNC(=O)c1ccccc1 [BETAMIPRON]: 138.7

Prompt: Return value of collision cross section (N2) for input CC(C)CCCC(C)C1CCC2C3CCC4CC(=O)CCC4(C)C3CCC12C (centres undefined) [CHOLESTAN-3-ONE] , no commentary.
Completion: 187.2

Prompt: Return value of collision cross section (N2) for input CC(=O)Nc1nnc(S(N)(=O)=O)s1 [ACETAZOLAMIDE] , no commentary.
Completion: 140.7

Prompt: Return value of collision cross section (N2) for input COc1ccc2c(c1)OC/C(=C\c1ccc(OC)c(O)c1)C2=O [SAPPANONE A DIMETHYL ETHER] , no commentary.
Completion: 170.3

Prompt: Return value of collision cross section (N2) for input Oc1ccc([C@H]2Oc3cc(O)cc(O)c3C[C@H]2O)cc1 [EPIAFZELECHIN (2R,3R)(-)] , no commentary.
Completion: 159.4

Prompt: Return value of collision cross section (N2) for input CC(C)C(=O)Nc1ccc([N+](=O)[O-])c(C(F)(F)F)c1 [FLUTAMIDE] , no commentary.
Completion: 160

Prompt: Return value of collision cross section (N2) for input CC1=CC(=O)c2c(O)cccc2C1=O [PLUMBAGIN] , no commentary.
Completion: 124.1

* * *

# Condition parameters: [M+Na]+; instrument: TW; calibrated with polyalanine
The label is 1 for collision cross section (N2) below 200 Å² and -1 for collision cross section (N2) equal to or exceeding 200 Å².

Examples from the recorded data:
CCCC[C@@H](C)[C@@H](O)[C@@H](O)C[C@@H](C)C[C@H](O)CCCC[C@@H](O)C[C@H](O)[C@H](C)N [HFB1]: -1
COc1cc2c(c3oc(=O)c4c(c13)CCOC4=O)C1C=COC1O2 (stereo unspecified) [Aflatoxin G1]: 1
COc1cc2c(c3oc(=O)c4c(c13)CCC4=O)[C@@H]1C=CO[C@@H]1O2 [Aflatoxin B1]: 1
COc1cc2c(c3oc(=O)c4c(c13)CCC4=O)[C@]1(O)C=CO[C@@H]1O2 [Aflatoxin M1]: 1
CC(C)[C@H]1C(=O)O[C@H](C(C)C)C(=O)N(C)[C@@H](C(C)C)C(=O)O[C@H](C(C)C)C(=O)N(C)[C@@H](C(C)C)C(=O)O[C@H](C(C)C)C(=O)N1C [Enniatin B]: -1

Alright, here's another molecule for you.
Prompt: Lab note: confirm whether the reported collision cross section (N2) for this molecule is below 200 Å², equality not counting. molecule: CCCC[C@@H](C)[C@@H](OC(=O)C[C@@H](CC(=O)O)C(=O)O)[C@H](C[C@@H](C)CCCCCC[C@@H](O)C[C@H](O)[C@H](C)N)OC(=O)C[C@@H](CC(=O)O)C(=O)O [Fumonisin B2]
Completion: -1

* * *

Entries and their collision cross section (N2)
# Condition parameters: [M+Na]+; instrument: DT; stepped-field

As a guide, the following entries are already answered.
CC/C=C\C/C=C\C/C=C\CCCCCCCC(=O)O[C@H](COC(=O)CCCCC/C=C\C/C=C\C/C=C\C/C=C\CCCCC)COP(=O)(O)OC[C@H](N)C(=O)O: 289.65 Å²
CCCCC/C=C\C/C=C\C/C=C\C/C=C\CCCCCC(=O)O[C@H](COC(=O)CCCCCCC/C=C\C/C=C\CCCCC)COP(=O)(O)OC[C@H](N)C(=O)O: 291.7 Å²
CCCCC/C=C\C/C=C\C/C=C\C/C=C\CCCC(=O)O[C@H](COC(=O)CCCCCCCCCCCCCCCCCCC)COP(=O)([O-])OCC[N+](C)(C)C: 297.42 Å²
CCCCCCCC/C=C\CCCCCCCCCC(=O)O[C@H](COC(=O)CCCCCCCCCCC)COP(=O)([O-])OCC[N+](C)(C)C: 279.16 Å²

// below: collision cross section (N2) requested for another molecule
Prompt: Return value of collision cross section (N2) for input CCCCC/C=C\C/C=C\CCCCCCCCCC(=O)O[C@H](COC(=O)CCCCCCC/C=C\CCCCCC)COP(=O)(O)OCCN , no commentary.
Completion: 277.57 Å²
